Data provenance: the RNAGym collection of RNA variant scans (doi:10.7554/elife.80360)

B1: HDV Ribozyme (parent)
chain: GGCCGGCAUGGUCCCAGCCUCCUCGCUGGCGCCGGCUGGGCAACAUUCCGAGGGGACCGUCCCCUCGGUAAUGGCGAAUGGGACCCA

Variants of: B1
method: self-cleavage, relative activity (ratio to wild type); higher = more cleavage; co-transcriptional
measured.metric: self-cleavage

primary.sequence	result
GGCCGGCAUGGUCCCAGCCUCCACUCUGGCGCCGGCUGGGCAACAUUCCGAGGGGACCGUCCCCUCGGUAAUGGCGAAUGGGACCCA [U23A G25U]	0.104
GGCCGGCAUGGUCCCAGCCUCCUCGCUGGCGCCGGCUGGGCAACAGUCCGAGGGGACCGUCCCCUCGGUAAUGUCGAAUGGGACCCA [U46G G74U]	0.529
GGCCGGCAUGGUCCCAGCCUCCUCGCUGGCGCCGGCUGGGCAACAUUCCGAGGCGACCGUCCCCUCGGUAAUGGCGAAUGGGACCGA [G54C C86G]	1.02
GGCCGGCAUGGUCCCAGCCUCCCCGCUGGCGCCGGCAGGGCAACAUUCCGAGGGGACCGUCCCCUCGGUAAUGGCGAAUGGGACCCA [U23C U37A]	0.0536
GGCCGGCAUGGUCCCAGCCUCCUCGCUGGCGCCGGCUGGGCAACAUUCCGAGGGGACCGUCCCUUCGGUAAUGUCGAAUGGGACCCA [C64U G74U]	0.569
GGCCGGCAUGGUCCCAGCCUCCUCGCUGGCGCCGGCUGGGCGACAUACCGAGGGGACCGUCCCCUCGGUAAUGGCGAAUGGGACCCA [A42G U47A]	0.391
GGCCGGCAGGGUCCCAGCCUCCUCACUGGCGCCGGCUGGGCAACAUUCCGAGGGGACCGUCCCCUCGGUAAUGGCGAAUGGGACCCA [U9G G25A]	0.0755
GGCCGGCAUGGUCCCCGCCUCCUCGCUGGCGCCGGCUGGGCAACAUUCCGAGGGGACCGUCCCCUCGGUAAUGGCGAAUGGGACCAA [A16C C86A]	0.692
GGCCGGCAUGGUCCCAGUCUCCUCGCUGGCACCGGCUGGGCAACAUUCCGAGGGGACCGUCCCCUCGGUAAUGGCGAAUGGGACCCA [C18U G31A]	0.0702
GGCCGGCAUGGUCCCAGGCUCCUCGCUGGCGCCGGCUGGGCAACAUUCCGAGGGGACCGUCCCCUCGGUAAUGGCGAAUGGGAUCCA [C18G C84U]	0.0386
GGCCGGCAUGGUUCCACCCUCCUCGCUGGCGCCGGCUGGGCAACAUUCCGAGGGGACCGUCCCCUCGGUAAUGGCGAAUGGGACCCA [C13U G17C]	0.217
GGCCGGCAUGGUCCCAGCCUCCUCGCUGGAGCCGGCUGGGCAACAUUCCGAGAGGACCGUCCCCUCGGUAAUGGCGAAUGGGACCCA [C30A G53A]	0.389
GGCCGGCAUGGUCCCCGCCUCCUCGCUGGCGCCGGCUGGGCAACAUUCCGAGGGGACCGUCCCCUCGGUAAUGGCGAGUGGGACCCA [A16C A78G]	0.361
GGCCGGCAUGGUCCCAGCCUCCUCGCUGGCGCCGGCUGGGCCAGAUUCCGAGGGGACCGUCCCCUCGGUAAUGGCGAAUGGGACCCA [A42C C44G]	0.217
GGCCGGCAUGGUCCCAGCCUCCUCGCUGGCGCCGGUUGGGCAACAUUGCGAGGGGACCGUCCCCUCGGUAAUGGCGAAUGGGACCCA [C36U C48G]	0.831
GGCCGGCAUGGUCCCAGCCUCCUCGCUGGCGCCGGCUGGGCAACAUUCCGAGGGGACCGUCCCCUCGGUACUGGCGCAUGGGACCCA [A71C A77C]	0.0978
GGCCGGCAAGGUCCCAGCCUCCUCGCUGGCGCCGGCUGGGCAACACUCCGAGGGGACCGUCCCCUCGGUAAUGGCGAAUGGGACCCA [U9A U46C]	0.831
GGCCGGCAUGGUCCCAGCCUCCUCGCUGGCGCCGGCUGGGCAACAUUCCGAGGGGCCCGUCCCCUCGGUACUGGCGAAUGGGACCCA [A56C A71C]	0.997
GGCCGGCAUGGUCCCAGCCUCCUCGCUGGCGCCGGCUUGGCAACAUUCCGAGGGGACCGUACCCUCGGUAAUGGCGAAUGGGACCCA [G38U C61A]	0.248
GGCCGGCAUGGGCCCAGCCUCCUCGCUGGCGCCGGCUGGGCAACAUUCCGAGGGGACCGUCCUCUCGGUAAUGGCGAAUGGGACCCA [U12G C63U]	0.755
GGCCGGCAUGGUCCCAGCCUCCUCGCUGGCGCCGGAUGGGCAACAGUCCGAGGGGACCGUCCCCUCGGUAAUGGCGAAUGGGACCCA [C36A U46G]	0.123
GGCCGGCAUUGUCCCAGCCUCCUCGCUGGCGCCGGCUGGGCAACAUUCCGAGGGGACCGUCCACUCGGUAAUGGCGAAUGGGACCCA [G10U C63A]	0.845
GGCCGGCAUGGUCCCAGCCUCCUCGCUGGCGCCGGCUGGGAAACAUUCCGAGGAGACCGUCCCCUCGGUAAUGGCGAAUGGGACCCA [C41A G54A]	1.01
GGCCGGCAUGGUCCCAGCCUCCUCGCUGGCGCCGGCUGGGCAACAUUCCGAGGGGACCGUCCCCUCGGUAAUGGGGAAUGGGACUCA [C75G C85U]	0.237
GGCCGGCAUGGUACCAGCCUCCUCUCUGGCGCCGGCUGGGCAACAUUCCGAGGGGACCGUCCCCUCGGUAAUGGCGAAUGGGACCCA [C13A G25U]	0.0791
GGCCGGCAUGGUCCCAGCCUCCUCGCUGGCGCCGGCUGGUCAACAGUCCGAGGGGACCGUCCCCUCGGUAAUGGCGAAUGGGACCCA [G40U U46G]	0.136
GGCCGGCAUGGUCCCAGCCUCCUCGCUGGCGCCGGCUGGGCAACAUUCCGAGUGGACCGACCCCUCGGUAAUGGCGAAUGGGACCCA [G53U U60A]	0.997
GGCCGGCAUGCUCCCAGCCUCCUCGCUGGCGCCGGCUGGGCAACAUUCCGAGGGGACCGUCCCCUCGGUAAUGGCGAAUGGGAUCCA [G11C C84U]	0.18
GGCCGGCAUGGUCCCAGCCUCCUCGCUGGCGCUGGAUGGGCAACAUUCCGAGGGGACCGUCCCCUCGGUAAUGGCGAAUGGGACCCA [C33U C36A]	0.151
GGCCGGCAUAGUCCCAGCCGCCUCGCUGGCGCCGGCUGGGCAACAUUCCGAGGGGACCGUCCCCUCGGUAAUGGCGAAUGGGACCCA [G10A U20G]	0.0791
GGCCGGCAUGGUUCCAGCCUCCUCGCUGGCGCCGGCUGGGCAACAUUCCGAGGGGAACGUCCCCUCGGUAAUGGCGAAUGGGACCCA [C13U C57A]	0.831
GGCCGGCAUGGUCCCAGCCUCCUCGCGGGCGCCGGCUGGGCAACAUUCCGAGGGGACCGUCCGCUCGGUAAUGGCGAAUGGGACCCA [U27G C63G]	0.532
GGCCGGCAUGGUCCCAGCCUCCUCGCUAGCGCCGGCUGGGCAACAUUCCGAGGGGACCAUCCCCUCGGUAAUGGCGAAUGGGACCCA [G28A G59A]	0.0573
GGCCGGCAUGGUCCCAGCCUCCUCGCUGCCGCCGGCUGGGCAACAUUCCCAGGGGACCGUCCCCUCGGUAAUGGCGAAUGGGACCCA [G29C G50C]	0
GGCCGGCAUGGUUCCAGCCUCCUCGCUGGCGCCGGCUCGGCAACAUUCCGAGGGGACCGUCCCCUCGGUAAUGGCGAAUGGGACCCA [C13U G38C]	0.0554
GGCCGGCAUGGUCCCAGCCUCCUCGCUGGCGCCGGCUGGGCAACAGUCCGUGGGGACCGUCCCCUCGGUAAUGGCGAAUGGGACCCA [U46G A51U]	0.45
GGCCGGCAUGGUCCCAGCCUCCUCGCUGGCGCCGGCUGGGCAACAUUCCGAGGGGACCGUCCCCUCGGUAAUGGCUAAAGGGACCCA [G76U U79A]	0.984
GGCCGGCAUGGUCCCAGCCUCCUCGCGGGCGCCGGCUGGGCAUCAUUCCGAGGGGACCGUCCCCUCGGUAAUGGCGAAUGGGACCCA [U27G A43U]	0.415
GGCCGGCAUGGUCCCAGCCUCCUCGCUGGCGCCGGCUGGGCAACGUUCCGAGGGGACAGUCCCCUCGGUAAUGGCGAAUGGGACCCA [A45G C58A]	1.18
GGCCGGCAUGGUCCAAGCCUCCUCGCUGGCGCUGGCUGGGCAACAUUCCGAGGGGACCGUCCCCUCGGUAAUGGCGAAUGGGACCCA [C15A C33U]	0.427
GGCCGGCAUGGUCCCAGCCUCCUCGCAGGCGCCGGCUGGGCAACAUUCCGAGGGGACCGUCCACUCGGUAAUGGCGAAUGGGACCCA [U27A C63A]	0.95
GGCCGACAUGGUCCCAGCCUCCUCGCUGGCGCCGGCUGGGCAACAUUCCGAGGGGACCGUCCCCUCGGUAAUGGCGAAUGGGAACCA [G6A C84A]	0.431
GGCCGGCAUGGGCCCAGCCUCCUCGCUGGCGCCGGCUGGGCAACAUUCCGAGGGGACCGUCCCCUCGGCAAUGGCGAAUGGGACCCA [U12G U69C]	1.35
GGCCGGCAUGGUCCCAGCCUCCUCGCUGGCGCCGGAUGGGCAACAUUCCGAGGGGAUCGUCCCCUCGGUAAUGGCGAAUGGGACCCA [C36A C57U]	0.102
